Molecular target: Endothelin-1 receptor (Homo sapiens)
Sequence (P25101 whole entry): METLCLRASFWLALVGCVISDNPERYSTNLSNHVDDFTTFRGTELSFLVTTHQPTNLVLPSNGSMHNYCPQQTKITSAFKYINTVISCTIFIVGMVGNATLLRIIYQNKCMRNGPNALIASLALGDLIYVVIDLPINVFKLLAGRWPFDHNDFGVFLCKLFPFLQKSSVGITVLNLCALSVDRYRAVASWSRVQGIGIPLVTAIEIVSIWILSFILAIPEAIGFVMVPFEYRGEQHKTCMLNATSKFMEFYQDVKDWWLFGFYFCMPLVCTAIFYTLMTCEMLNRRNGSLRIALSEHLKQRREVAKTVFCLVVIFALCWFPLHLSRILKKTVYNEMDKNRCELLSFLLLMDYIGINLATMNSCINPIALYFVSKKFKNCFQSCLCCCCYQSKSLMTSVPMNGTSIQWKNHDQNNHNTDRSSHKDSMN
Experiment: Binding affinity towards Endothelin A receptor in human neuroblastoma-derived cell line SK-N-MC membranes
Type: cell-based
Recorded IC50 for the following compounds
ENDPOINT_LABEL: IC50

1. CCCCC(NC(=O)[C@@H](Cc1c(C#N)[nH]c2ccccc12)NC(=O)C(NC(=O)N1[C@H](C)CCC[C@@H]1C)C(C)C)C(=O)O (some centres undefined)    2400 nM
2. CCCCC(NC(=O)[C@@H](Cc1c(Br)[nH]c2ccccc12)NC(=O)C(NC(=O)N1[C@H](C)CCC[C@@H]1C)C1CC1)C(=O)O (some centres undefined)    13 nM
3. CSCCC(NC(=O)[C@@H](Cc1c(C)[nH]c2ccccc12)NC(=O)C(NC(=O)N1[C@H](C)CCC[C@@H]1C)C1CC1)C(=O)O (some centres undefined)    3 nM
4. CCSCC(NC(=O)[C@@H](Cc1c(Br)[nH]c2ccccc12)NC(=O)C(CC(C)C)NC(=O)N1[C@H](C)CCC[C@@H]1C)C(=O)O (some centres undefined)    6.4 nM

###

Target: Endothelin receptor type B (Sus scrofa, UniProt P35463)
Sequence (P35463 whole entry): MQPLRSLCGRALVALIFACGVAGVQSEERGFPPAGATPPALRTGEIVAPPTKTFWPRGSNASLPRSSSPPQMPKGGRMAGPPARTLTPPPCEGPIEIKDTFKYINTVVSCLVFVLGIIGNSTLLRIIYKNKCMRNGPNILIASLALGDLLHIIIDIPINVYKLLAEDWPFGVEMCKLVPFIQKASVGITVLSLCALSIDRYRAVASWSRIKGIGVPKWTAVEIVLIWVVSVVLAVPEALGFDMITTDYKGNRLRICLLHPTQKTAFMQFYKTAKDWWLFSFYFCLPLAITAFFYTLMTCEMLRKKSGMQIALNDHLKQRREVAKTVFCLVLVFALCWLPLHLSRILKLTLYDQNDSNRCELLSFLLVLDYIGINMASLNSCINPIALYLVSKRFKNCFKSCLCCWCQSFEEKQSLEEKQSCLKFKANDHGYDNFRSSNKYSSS
Assay: Binding affinity towards endothelin B receptor in porcine cerebellum membranes
pIC50: −log10 of the molar value.
ENDPOINT_LABEL: pIC50

1. Cc1[nH]c2ccccc2c1C[C@H]1NC(=O)[C@H](CC(C)C)NC(=O)[C@@H](C(C)C)NC(=O)[C@@H]2CCCN2C(=O)[C@@H](CC(=O)O)NC1=O    6.06
2. CSCCC(NC(=O)[C@@H](Cc1c(C)[nH]c2ccccc12)NC(=O)C(NC(=O)N1[C@H](C)CCC[C@@H]1C)C1CC1)C(=O)O (some centres undefined)    8.54
3. CCCCC(NC(=O)[C@@H](Cc1c(C#N)[nH]c2ccccc12)NC(=O)C(NC(=O)N1[C@H](C)CCC[C@@H]1C)C(C)C(C)C)C(=O)O (some centres undefined)    8.15
4. CCCCC(NC(=O)[C@@H](Cc1c(Cl)[nH]c2ccccc12)NC(=O)C(NC(=O)N1[C@H](C)CCC[C@@H]1C)C(C)C)C(=O)O (some centres undefined)    8.34

###

Biological target: Endothelin receptor type B (Sus scrofa, UniProt P35463)
Sequence (P35463 whole entry): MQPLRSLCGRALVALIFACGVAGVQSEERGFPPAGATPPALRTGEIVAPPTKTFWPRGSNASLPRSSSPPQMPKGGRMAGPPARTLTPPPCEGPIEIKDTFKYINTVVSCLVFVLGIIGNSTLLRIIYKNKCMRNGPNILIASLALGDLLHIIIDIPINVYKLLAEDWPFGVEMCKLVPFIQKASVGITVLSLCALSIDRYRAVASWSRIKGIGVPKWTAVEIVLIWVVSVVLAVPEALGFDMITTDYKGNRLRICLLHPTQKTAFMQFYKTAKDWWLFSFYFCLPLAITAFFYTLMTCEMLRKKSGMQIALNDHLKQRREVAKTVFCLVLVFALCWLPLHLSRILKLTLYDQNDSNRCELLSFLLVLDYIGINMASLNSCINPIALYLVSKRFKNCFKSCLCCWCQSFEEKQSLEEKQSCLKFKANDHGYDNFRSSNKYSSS
Assay: Binding affinity towards endothelin B receptor in porcine cerebellum membranes
pIC50: −log10 of the molar value.
Threshold rule: pIC50 greater than or equal to 8 is criterion met; below that, criterion not met.

1. CCCCC(NC(=O)[C@@H](Cc1c(Br)[nH]c2ccccc12)NC(=O)C(CC(C)C)NC(=O)N1CCCCCCC1)C(=O)O (some centres not stated)    criterion not met
2. CCCCC(NC(=O)[C@@H](Cc1c(Br)[nH]c2ccccc12)NC(=O)C(CC(C)C)NC(=O)N1CCCCCC1)C(=O)O (some centres not stated)    criterion not met
3. CSCCC(NC(=O)[C@@H](Cc1c(Br)[nH]c2ccccc12)NC(=O)C(CC(C)C)NC(=O)N1[C@H](C)CCC[C@@H]1C)C(=O)O (some centres not stated)    criterion met
4. Cc1[nH]c2ccccc2c1C[C@@H](NC(=O)C(NC(=O)N1[C@H](C)CCC[C@@H]1C)C1CC1)C(=O)NC(Cc1c[nH]cn1)C(=O)O (some centres not stated)    criterion not met
5. CCCCC(NC(=O)[C@@H](Cc1c(Br)[nH]c2ccccc12)NC(=O)C(CC(C)C)NC(=O)N1[C@H](C)CCC[C@@H]1C)C(=O)O (some centres not stated)    criterion met
6. CCCCC(NC(=O)[C@@H](Cc1c(Cl)[nH]c2ccccc12)NC(=O)C(NC(=O)N1[C@H](C)CCC[C@@H]1C)C1CCCC1)C(=O)O (some centres not stated)    criterion met
7. C=CCC(NC(=O)[C@@H](Cc1c(Br)[nH]c2ccccc12)NC(=O)C(CC(C)C)NC(=O)N1[C@H](C)CCC[C@@H]1C)C(=O)O (some centres not stated)    criterion met
8. CCSCC(NC(=O)[C@@H](Cc1c(Br)[nH]c2ccccc12)NC(=O)C(CC(C)C)NC(=O)N1[C@H](C)CCC[C@@H]1C)C(=O)O (some centres not stated)    criterion met
9. CCCCC(NC(=O)[C@@H](Cc1c(CC)[nH]c2ccccc12)NC(=O)C(CC(C)C)NC(=O)N1[C@H](C)CCC[C@@H]1C)C(=O)O (some centres not stated)    criterion met
10. CCCCC(NC(=O)[C@@H](Cc1c(Br)[nH]c2ccccc12)NC(=O)C(CC(C)C)NC(=O)N1CCCC1)C(=O)O (some centres not stated)    criterion not met

Reference source for all entries: ChEMBL document CHEMBL1129335
